tested on: HOP-62 NSCLC; test: NCI tumour cell line growth inhibition, 48 h
recorded.metric: TGI

// known answers, use as guide
{"columns": ["compound", "target.under.test", "TGI"],
 "data": [
  ["COC1OC(C)C(OC(=O)C(C)(C)C)C(C)(O)C1O (configuration not stated)", "HOP-62 NSCLC", "> 100 µM"],
  ["CCN(CC)CC(C)(C)C(=O)/C=C/c1ccc(C)cc1", "HOP-62 NSCLC", "32.9 µM"],
  ["COc1cc2c(cc1OC)-c1cc3ccccc3c(=O)n1CCC2", "HOP-62 NSCLC", "> 75.3 µM"]
]}

Given the compound CCOc1ccc(N=Cc2cc(OC)c(OC)c(OC)c2)cc1 , what is its reported TGI?
> 100 µM

Record request: TGI value, item COc1cc2c(cc1OC)-c1c(cc(OC)c(OC)c1OC)C2=O
> 100 µM

Param item = Cc1cc(NC(=O)CCc2ccc(N3C(N)=NC(N)=NC3(C)C)cc2)ccc1S(=O)(=O)F ; retrieve measured TGI.
> 100 µM

Which measured TGI value corresponds to C[C@H](CCc1nc(C#N)c(N)o1)[C@H]1CC[C@H]2[C@@H]3[C@@H](O)CC4C[C@@H](O)CC[C@]4(C)[C@H]3C[C@@H](O)[C@]12C (some centres not stated) ?
> 54.4 µM

May I ask what TGI has been recorded for CC[n+]1[b-](C(C)(C)C)n(/N=C(\C)C(C)(C)C)[b-](C(C)(C)C)[n+]1CC ?
> 100 µM

Given CNC(=O)N(CCC#N)CCN(CCN(C(=O)NC)c1ccccc1)C(=O)NC , state its recorded TGI.
> 100 µM

Quick check: TGI of NC(C(=O)O)C(N)C(=O)O (configuration not stated) ?
> 100 µM

Suppose we examine the compound CCC(C)(C)NC1=C(NC(C)=O)C(=O)c2ccccc2C1=O ; what TGI value has been reported?
> 75 µM

---

// reported TGI per item
test system: TK-10 renal; assay: NCI tumour cell line growth inhibition, 48 h
Dear colleague, please return just the value in µM, with no unit written.

{"columns": ["record.smiles", "units.label", "TGI"],
 "data": [
  ["COC(=O)/C(=C/N1CCN(C(=O)c2ccco2)C1=S)C(C)=O", "µM", 14.9],
  ["O=C1c2cccc3c(N4CCN(c5ccc6c7c(cccc57)C(=O)N(CCN5CCNCC5)C6=O)CC4)ccc(c23)C(=O)N1CCN1CCNCC1", "µM", 33.4],
  ["NC(=O)c1c(OCc2c(F)cc(Br)cc2F)nsc1NC(=O)NCCCCN1CCCC1", "µM", 7.94]
]}

Okay, next one:
Look up TGI: COc1cc(Cn2c3c(c4cc(O)ccc42)C(=O)c2ccccc2C3=O)cc(OC)c1
34.9

---

system: HL-60(TB) leukemia; test: NCI tumour cell line growth inhibition, 48 h
recorded.metric: TGI

{"columns": ["compound", "meas.value"],
 "data": [
  ["CN(C)CCCC1(c2ccc(F)cc2)OCc2cc(-c3ccc4cc[nH]c4c3)ccc21 (stereo not given)", "3.77 µM"],
  ["O=C1c2cccc3c(N4CCN(c5ccc6c7c(cccc57)C(=O)N(CCN5CCNCC5)C6=O)CC4)ccc(c23)C(=O)N1CCN1CCNCC1", "20.6 µM"],
  ["Nc1nc(Cl)cc(Nc2ccc3c(c2)CCC3)n1", "80.9 µM"],
  ["Cc1cccc(C)c1NC(=S)/N=C/C1=C(O)c2ccccc2C1=O", "> 100 µM"]
]}

Value lookup for TGI; key = CCCCNc1nc(SC)nc2nc[nH]c12
> 100 µM

Which TGI value belongs to C[C@H](CCc1nc(C#N)c(N)o1)[C@H]1CC[C@H]2[C@@H]3[C@@H](O)CC4C[C@@H](O)CC[C@]4(C)[C@H]3C[C@@H](O)[C@]12C (stereo not given in full) ?
> 26.9 µM

Dear colleague, I am looking for the recorded TGI of the following compound: CC(O[Si](C)(C)C(C)(C)C)[C@H](NC(=O)OCC(Cl)(Cl)Cl)C(=O)O (stereo not given in full)
> 100 µM

Which value of TGI has been reported for CC1CC2C3CC(F)C4=CC(=O)C=CC4(C)C3(F)C(O)CC2(C)C1(O)C(=O)CO (stereo not given) in the records?
> 100 µM

Quick one: TGI for O=[N+]([O-])C(=C1Nc2ccccc2N1)C(Cl)=C(Cl)Cl ?
> 100 µM

If you can, please state the reported TGI value of O=C(O)/C(=C\c1ccccc1)Cc1ccccc1 .
> 100 µM

Fill blank: measured TGI of the compound CC(C)(C)OC(=O)C(C1NC(C(=O)O)C(C)(C)S1)N1C(=O)c2ccccc2C1=O (stereo not given) is ____.
> 100 µM

Which measured TGI value corresponds to O=C1/C(=C\c2ccccc2)c2ccccc2N1Cc1ccccc1 ?
> 31.6 µM

Please give the measured TGI for this compound: OCCOCCO[P+]1(OCCOCCO)n2c3ccc2C(c2ccccc2)=C2C=CC(=N2)C(c2ccccc2)=c2ccc(n21)=C(c1ccccc1)C1=NC(=C3c2ccccc2)C=C1
0.18 µM

I have this compound here, CCOC(=O)c1sc2nc(SC)nc(Nc3ccc(OC)c(OC)c3)c2c1N , and I need its recorded TGI.
> 100 µM

What value of measured TGI is listed for COc1cc(/C=C2\NC(=O)N(/C=C3\C(=O)Oc4ccccc4C3=O)C2=O)ccc1O ?
62 µM

---

tested on: SK-OV-3 ovarian; assay: NCI tumour cell line growth inhibition, 48 h
recorded.metric: TGI

Before answering, review these 5 worked examples.
{"columns": ["compound", "recorded.metric", "meas.value"],
 "data": [
  ["Nc1nc(Cl)c2ncn(Cc3ccccc3CCl)c2n1", "TGI", "52.1 µM"],
  ["O=C(O)/C(=C\\c1ccccc1)Cc1ccccc1", "TGI", "> 100 µM"],
  ["NC(=O)c1c(OCc2c(F)cc(Br)cc2F)nsc1NC(=O)NCCCCN1CCCC1", "TGI", "> 10 µM"],
  ["N#Cc1ccc(-n2cnc(NC(=O)[C@H]3CCN(C#N)C3)c2)cc1", "TGI", "> 51.4 µM"],
  ["CC1CC2C3CC(F)C4=CC(=O)C=CC4(C)C3(F)C(O)CC2(C)C1(O)C(=O)CO (configuration not stated)", "TGI", "> 100 µM"]
]}

# input compound: Cc1cccc(C)c1NC(=S)/N=C/C1=C(O)c2ccccc2C1=O ; wanted: its TGI
> 29.3 µM

Any idea what its TGI is? The compound is CC(NC1CCC[C@H]1O)c1ccccc1 (mixture of isomers)
> 100 µM

Would you mind telling me what TGI value was observed for Cc1cc(S(=O)(=O)Nc2nc(N)n(C)n2)c(S)cc1Cl ?
> 10 µM

Given CN1c2ccccc2C2c3c(O)ccc(O)c3C=C([N+](=O)[O-])C21 (configuration not stated) , state its recorded TGI.
13.5 µM

Give the measured TGI of O=C1Nc2ccccc2SC1C1SC(=S)N(Cc2ccccc2)C1=O (configuration not stated) .
> 100 µM

Which TGI reading was recorded for the compound N#CC1=C(N)Oc2c(sc3c(F)cccc23)C1c1ccc([N+](=O)[O-])cc1 (configuration not stated) ?
2.37 µM

Suppose we examine the compound COc1ccc(-c2nc3ccc(C)cc3o2)c(OC)c1 ; what TGI value has been reported?
> 100 µM

What value of TGI has been reported for the following compound? Cc1ccc(N2C(=O)/C(=c3\s/c(=C(/N)O)c(=N)n3-c3ccccc3)SC2=S)cc1
> 100 µM

Consider the compound CC1(C)[C@H](O)CC[C@]2(C)C3=CC[C@@]4(C)[C@@H]5C[C@](C)(CO)CC[C@]5(C)CC[C@]4(C)C3=CC[C@@H]12 and give its measured TGI.
> 100 µM

So what does the record say about TGI for COCCN1C2=CCCCC2=Nc2c(N)nc(N)nc21 ?
> 100 µM

Look at this compound and give its reported TGI. O=C(c1cccs1)c1c(C(F)(F)F)n([O-])c2cc(F)c(F)cc2[n+]1=O
5.85 µM

Bench note: what TGI did Cn1ncc2c(NCCc3ccccc3)nc(Cl)nc21 show?
71.7 µM

So what does the record say about TGI for CC(C)OCN1COCN=C1NC#N ?
> 100 µM

Would you kindly share the measured TGI for CC(=O)O[C@H]1CCC2[C@@H]3CCC4C(=O)c5oncc5C[C@]4(C)C3CC[C@@]21C (some centres not stated) ?
> 100 µM

What TGI value was documented for this compound, N#Cc1cccc(Nc2nccc(-c3cnn4ncccc34)n2)c1 ?
> 25 µM

Could you tell me which TGI is on file for CC1=NN(C(=O)c2ccc(Cl)cc2)C(=O)/C1=C/c1cccc(O)c1 ?
> 100 µM

Bench note: what TGI did OC[C@H]1CC(c2nn[nH]n2)[C@H](O)[C@@H]1O (some centres not stated) show?
> 100 µM
